# system_name: T1, Human CD3eg linker (human)
# T1 construct: Single-chain construct; also called recombinant human CD3
# T1 chain: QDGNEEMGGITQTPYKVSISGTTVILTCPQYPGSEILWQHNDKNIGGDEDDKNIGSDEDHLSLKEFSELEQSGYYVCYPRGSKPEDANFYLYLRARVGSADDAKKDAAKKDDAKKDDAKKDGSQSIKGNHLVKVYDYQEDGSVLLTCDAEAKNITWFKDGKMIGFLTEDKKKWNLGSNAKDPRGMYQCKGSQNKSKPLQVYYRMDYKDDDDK
# assay_procedure: SPR; fold vs parent H183/L072
readout_name: fold change of affinity (fold)
Value expressed in fold; do not type the unit.

H183/L072 VL V94I (antibody, name in Kabat numbering, V domains shown) VH: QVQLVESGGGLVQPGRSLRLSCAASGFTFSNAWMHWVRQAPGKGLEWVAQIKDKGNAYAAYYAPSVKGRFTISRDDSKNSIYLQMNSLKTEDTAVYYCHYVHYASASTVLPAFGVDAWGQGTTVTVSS VL: DIVMTQSPLSLPVTPGEPASISCQASQELVHMNRNTYLHWYQQKPGQAPRLLIYKVSNRFPGVPDRFSGSGSGTDFTLKISRVEAEDVGVYYCAQGTSIPFTFGQGTKLEIK; 0.8
H183/L072 VL S26A (antibody, name in Kabat numbering, V domains shown) VH: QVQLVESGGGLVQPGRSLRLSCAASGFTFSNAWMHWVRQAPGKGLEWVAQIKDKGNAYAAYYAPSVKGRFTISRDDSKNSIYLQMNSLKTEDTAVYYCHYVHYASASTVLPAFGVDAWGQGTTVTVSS VL: DIVMTQSPLSLPVTPGEPASISCQAAQELVHMNRNTYLHWYQQKPGQAPRLLIYKVSNRFPGVPDRFSGSGSGTDFTLKISRVEAEDVGVYYCAQGTSVPFTFGQGTKLEIK; 0.8
H183/L072 VL S52A (antibody, name in Kabat numbering, V domains shown) VH: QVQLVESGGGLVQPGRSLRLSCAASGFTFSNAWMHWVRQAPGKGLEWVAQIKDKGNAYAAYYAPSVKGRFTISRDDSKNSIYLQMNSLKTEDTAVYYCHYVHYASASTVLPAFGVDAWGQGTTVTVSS VL: DIVMTQSPLSLPVTPGEPASISCQASQELVHMNRNTYLHWYQQKPGQAPRLLIYKVANRFPGVPDRFSGSGSGTDFTLKISRVEAEDVGVYYCAQGTSVPFTFGQGTKLEIK; 1.2
H183/L072 VL R54K (antibody, name in Kabat numbering, V domains shown) VH: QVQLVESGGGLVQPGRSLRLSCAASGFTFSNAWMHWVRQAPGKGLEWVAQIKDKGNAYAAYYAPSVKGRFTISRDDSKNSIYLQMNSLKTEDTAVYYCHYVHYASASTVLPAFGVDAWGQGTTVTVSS VL: DIVMTQSPLSLPVTPGEPASISCQASQELVHMNRNTYLHWYQQKPGQAPRLLIYKVSNKFPGVPDRFSGSGSGTDFTLKISRVEAEDVGVYYCAQGTSVPFTFGQGTKLEIK; 1.7

# next binder below
Task: Supply measured fold change of affinity of H183/L072 VL L33K (antibody, name in Kabat numbering, V domains shown) VH: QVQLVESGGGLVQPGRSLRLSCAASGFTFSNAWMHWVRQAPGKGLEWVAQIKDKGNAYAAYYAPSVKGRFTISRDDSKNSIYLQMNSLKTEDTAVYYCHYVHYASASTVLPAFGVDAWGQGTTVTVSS VL: DIVMTQSPLSLPVTPGEPASISCQASQELVHMNRNTYKHWYQQKPGQAPRLLIYKVSNRFPGVPDRFSGSGSGTDFTLKISRVEAEDVGVYYCAQGTSVPFTFGQGTKLEIK in your reply.
Output: 0
